What follows is a record of log10(IC50) for Membrane-associated tyrosine- and threonine-specific cdc2-inhibitory kinase (Homo sapiens).
Value type: log10(IC50) (log10 of the value in nM)

{"Structure smiles string": "Cc1ccc2[nH]ncc2c1-c1cc(-c2ccnc(OCc3ccco3)n2)nc(C(N)=O)c1N", "Value type": "log10(IC50)", "Reported": 0.85}
{"Structure smiles string": "Cc1ccc2[nH]ncc2c1-c1cc(-c2ccnc(OCC3(C#N)CC3)n2)nc(C(N)=O)c1N", "Value type": "log10(IC50)", "Reported": 1.00}
{"Structure smiles string": "Cc1ccc2[nH]ncc2c1-c1nc(-c2ccnnc2)cc(C(N)=O)c1N", "Value type": "log10(IC50)", "Reported": 2.52}
{"Structure smiles string": "Cc1ccc2[nH]ncc2c1-c1nc(-c2cccc(N3CCN(C)CC3)c2)nc(C(N)=O)c1N", "Value type": "log10(IC50)", "Reported": 1.57}
{"Structure smiles string": "NC(=O)c1nc(-c2ccnnc2)cc(-c2cccc3[nH]ncc23)c1N", "Value type": "log10(IC50)", "Reported": 2.12}
{"Structure smiles string": "CC(=O)N1CCN(c2nccc(-c3cc(-c4c(C)ccc5[nH]ncc45)c(N)c(C(N)=O)n3)n2)CC1", "Value type": "log10(IC50)", "Reported": 0.85}
{"Structure smiles string": "Cc1ccc2[nH]ncc2c1-c1nc(-c2cccnc2O)nc(C(N)=O)c1N", "Value type": "log10(IC50)", "Reported": 1.43}
{"Structure smiles string": "Cc1ccc2[nH]ncc2c1-c1nc(-c2ccc3[nH]ncc3c2)nc(C(N)=O)c1N", "Value type": "log10(IC50)", "Reported": 1.82}
{"Structure smiles string": "Cc1ccc2[nH]ncc2c1-c1cc(-c2ccnc(N[C@H]3CCOC[C@@H]3O)n2)nc(C(N)=O)c1N", "Value type": "log10(IC50)", "Reported": 1.18}
{"Structure smiles string": "Cc1ccc2[nH]ncc2c1-c1cc(-c2cccc(-c3ccccn3)n2)nc(C(N)=O)c1N", "Value type": "log10(IC50)", "Reported": 1.66}
{"Structure smiles string": "Cc1ccc(O)cc1-c1nc(C2CCOCC2)nc(C(N)=O)c1N", "Value type": "log10(IC50)", "Reported": 3.50}
{"Structure smiles string": "Cc1ccc2[nH]ncc2c1-c1cc(-c2ccnc(OCc3nccn3C)n2)nc(C(N)=O)c1N", "Value type": "log10(IC50)", "Reported": 0.60}
{"Structure smiles string": "Cc1ccc2[nH]ncc2c1-c1nc(-c2ccc(N3CCN(C)CC3)cc2)nc(C(N)=O)c1N", "Value type": "log10(IC50)", "Reported": 2.15}
{"Structure smiles string": "COc1cc(-c2nc(C(N)=O)c(N)c(-c3c(C)ccc4[nH]ncc34)n2)ccn1", "Value type": "log10(IC50)", "Reported": 1.34}
{"Structure smiles string": "Cc1ccc2[nH]ncc2c1-c1cc(-c2ccnc(OCC(F)(F)F)n2)nc(C(N)=O)c1N", "Value type": "log10(IC50)", "Reported": 2.77}
{"Structure smiles string": "Cc1ccc2[nH]ncc2c1-c1nc(-c2ccc(C#N)cc2)nc(C(N)=O)c1N", "Value type": "log10(IC50)", "Reported": 1.59}
{"Structure smiles string": "Cc1cc(-c2nc(C(N)=O)c(N)c(-c3c(C)ccc4[nH]ncc34)n2)ccn1", "Value type": "log10(IC50)", "Reported": 1.40}
{"Structure smiles string": "Cc1ccc(O)c(C)c1-c1nc(-c2ccnnc2)cc(C(N)=O)c1N", "Value type": "log10(IC50)", "Reported": 1.43}
